experiment: 75Q-TubH aggregate inhibition, S. cerevisiae, yeast (AID 1616); conditions: S. cerevisiae 75Q-TubH polyglutamine aggregation suppression; stronger effect = higher value

{"columns": ["COMPOUND", "aggregation suppression score"],
 "data": [
  ["C[C@](N)(Cc1ccc(O)c(O)c1)C(=O)O", 1.39],
  ["CS(=O)(=O)c1ccc([C@@H](O)[C@@H](CO)NC(=O)C(Cl)Cl)cc1", 0.726],
  ["O=C(OCc1ccccc1)c1ccccc1", 0.363],
  ["CCC(=O)O[C@H]1[C@H](O[C@@H]2[C@@H](C)[C@H](O[C@H]3C[C@@](C)(OC)[C@@H](O)[C@H](C)O3)[C@@H](C)C(=O)O[C@H](CC)[C@@](C)(O)[C@H](O)[C@@H](C)C(=O)[C@H](C)C[C@@]2(C)O)O[C@H](C)C[C@@H]1N(C)C", -0.59],
  ["OCC(O)CN1CCN(c2ccccc2)CC1 (centres undefined)", 1.04],
  ["CN1CCN(CC(=O)N2c3ccccc3C(=O)Nc3cccnc32)CC1", 1.19],
  ["CN(C)CCC=C1c2ccccc2C=Cc2ccccc21", 1.07],
  ["CC(C)(C)CC(C)(C)c1ccc(O)c(Cc2ccc(Cl)cc2Cl)c1", 0.498],
  ["O=C(OCC(O)CO)c1ccccc1Nc1ccnc2cc(Cl)ccc12 (centres undefined)", 0.893],
  ["Cc1c(N(C)CS(=O)(=O)O)c(=O)n(-c2ccccc2)n1C", 1.09],
  ["CCCCC(CC)CN1CN(CC(CC)CCCC)CC(C)(N)C1 (centres undefined)", 0.306],
  ["CC1=CC(=O)c2ccccc2C1=O", 0.00728],
  ["Cc1cc(NC(=O)C2=C(O)c3ccccc3S(=O)(=O)N2C)no1", -0.565],
  ["CCCCCCc1ccc(O)cc1O", -0.0012],
  ["COc1ccc(CCN(C)CCCC(C#N)(c2ccc(OC)c(OC)c2)C(C)C)cc1OC (centres undefined)", 1.45],
  ["COc1ccc2cc3[n+](cc2c1OC)CCc1cc2c(cc1-3)OCO2", 0.27],
  ["C[N+]12CCC(CC1)C(OC(=O)C(O)(c1ccccc1)c1ccccc1)C2 (centres undefined)", 1.21],
  ["O=C(O)P(=O)(O)O", 1.5],
  ["CN1CCC(=C2c3ccccc3Sc3ccccc32)CC1", 1.3],
  ["CC(=O)Nc1ccc(OCC(O)CNC(C)C)cc1 (centres undefined)", 1.1],
  ["CCOC(N)=O", 1.21],
  ["CC(C)(Oc1ccc(Cl)cc1)C(=O)O", 1.01],
  ["Cc1c(NC(C)C)c(=O)n(-c2ccccc2)n1C", 1.14],
  ["N[C@@H](Cc1ccc(O)c(O)c1)C(=O)O", 1.67],
  ["Cn1cnc2c1c(=O)[nH]c(=O)n2C", 1.09],
  ["Nc1ccc(S(=O)(=O)Nc2ccnn2-c2ccccc2)cc1", 0.956],
  ["CN(C)CCCN1c2ccccc2Sc2ccccc21", 1.03],
  ["CSc1ccc2c(c1)C(N1CCN(C)CC1)Cc1ccccc1S2 (centres undefined)", 1.18],
  ["Oc1c(Br)cc(Br)c2cccnc12", -0.0132],
  ["CN(C)CCC(c1ccccc1)c1ccccn1 (centres undefined)", 1.23],
  ["C[N+](C)(C)CCOC(N)=O", 1.67],
  ["O=C(O)c1ccccc1Nc1cccc(C(F)(F)F)c1", -0.092],
  ["CN1CCC(OC(c2ccccc2)c2ccccc2)CC1", 1.27],
  ["CN1CCOC(c2ccccc2)c2ccccc2C1 (centres undefined)", 1.44],
  ["CC1=NN(c2ccccc2)C(=O)C1", 0.985],
  ["Cc1cc(=O)[nH]c(=S)[nH]1", 1.02],
  ["Fc1ccc(C(c2ccc(F)cc2)N2CCN(C/C=C/c3ccccc3)CC2)cc1", 1.1],
  ["CCCc1ncc(C[n+]2ccccc2C)c(N)n1", 0.986],
  ["O=C(O)CCC(=O)Nc1ccc(S(=O)(=O)Nc2nccs2)cc1", 1.1],
  ["Cc1ccc(C(C)C)cc2c(C)ccc1-2", -1.39],
  ["CCn1cc(C(=O)O)c(=O)c2cnc(N3CCNCC3)nc21", 1.16],
  ["NC(N)=NS(=O)(=O)c1ccc(N)cc1", 1.54],
  ["CCN(CC)CCOCCOC(=O)C1(c2ccccc2)CCCC1", 1.37],
  ["Nc1ccc(S(=O)(=O)NC(=O)c2ccccc2)cc1", 1.16],
  ["NCC1CCC(C(=O)O)CC1 (centres undefined)", 1.21],
  ["CN(Cc1cnc2nc(N)nc(N)c2n1)c1ccc(C(=O)N[C@@H](CCC(=O)O)C(=O)O)cc1", 0.131],
  ["Cc1nc2sccn2c(=O)c1CCN1CCC(=C(c2ccc(F)cc2)c2ccc(F)cc2)CC1", 1.39],
  ["COc1ccc2c(c1)c(CC(=O)OCC(=O)O)c(C)n2C(=O)c1ccc(Cl)cc1", 0.866],
  ["CC(C)NCC(O)c1ccc2ccccc2c1 (centres undefined)", 0.983]
]}

Data provenance is PubChem BioAssay.
